system: MCF7; experiment: Antiproliferative activity against human MCF7 cells after 72 hrs by MTT assay; type: functional, cell-based; details: MCF7, 72 h
Assign labels as follows, please: class 1 for IC50 below 30 µM; class 0 for IC50 equal to or exceeding 30 µM.

> print(dat)
                                   compound  class.name
1    O=c1[nH]cc(F)c(=O)[nH]1 [FLUOROURACIL]     class 1
2  O=C(O)CCCc1ccc(N(CCCl)CCCl)cc1 [CHLORAMBUCIL]     class 0
3  O=C(OCCCCCOc1ccc(-c2cc(=O)c3c(O)c4c(cc3o2)OCCO4)cc1)c1ccc(N(CCCl)CCCl)cc1     class 0

Now look at this one.
input: is_below(IC50, 30 µM) for O=C(OCCCCOc1ccc(-c2cc(=O)c3c(O)c(O)c(O)cc3o2)cc1)c1ccc(N(CCCl)CCCl)cc1 ?
output: class 1

----------
tested on: MCF7; experiment: Antiproliferative activity against human MCF7 cells after 72 hrs by MTT assay; format: functional, cell-based; details: MCF7, 72 h
QUANTITY_KIND: IC50

The following compounds have reported results that may help.
> print(dat)
                                item.smiles   result
1  COc1cc2oc(-c3ccc(OCCCCCOC(=O)c4ccc(N(CCCl)CCCl)cc4)cc3)cc(=O)c2c(O)c1OC  > 50 µM
2  O=C(OCCCOc1ccc(-c2cc(=O)c3c(O)c4c(cc3o2)OCCO4)cc1)c1ccc(N(CCCl)CCCl)cc1    45 µM
3  COc1cc2oc(-c3ccc(OCCCCOC(=O)c4ccc(N(CCCl)CCCl)cc4)cc3)cc(=O)c2c(O)c1OC  > 50 µM
4  O=C(OCCCCCOc1ccc(-c2cc(=O)c3c(O)c(O)c(O)cc3o2)cc1)c1ccc(N(CCCl)CCCl)cc1  4.78 µM

input: Any idea what its IC50 is? The compound is O=C(OCCCOc1ccc(-c2cc(=O)c3c(O)c(O)c(O)cc3o2)cc1)c1ccc(N(CCCl)CCCl)cc1
output: 1.5 µM

input: Any idea what its IC50 is? The compound is COc1cc2oc(-c3ccc(OCCCOC(=O)c4ccc(N(CCCl)CCCl)cc4)cc3)cc(=O)c2c(O)c1OC
output: > 50 µM

input: Any idea what its IC50 is? The compound is O=C(OCCCCOc1ccc(-c2cc(=O)c3c(O)c4c(cc3o2)OCCO4)cc1)c1ccc(N(CCCl)CCCl)cc1
output: > 50 µM

Source: ChEMBL document CHEMBL4265940
